# Tested on: myosin ATPase, Porcine Atria myofibrils
# PROTOCOL_SUMMARY: Myofibril ATPase assay, porcine atria myofibrils
# Type: biochemical
# DETAILS: concentration required to reduce myosin ATP-ase activity by 25%; Porcine Atria Prep pCa 25 GEOM_MEAN
# reported Porcine Atria EC25 (Y75 value); entries follow
Your reply should be a number followed by the unit it is expressed in.

Check out these entries, answers already filled in.
{"COMPOUND": "C[C@@H](NC(=O)Cn1c(=O)[nH]c2cccc(F)c2c1=O)c1ncc(C#N)cc1F (single isomer, unassigned)", "Porcine Atria EC25 (Y75 value)": "100 µM"}
{"COMPOUND": "C[C@@H](NC(=O)Cn1c(=O)[nH]c2ccccc2c1=O)c1ccccc1 (single isomer, unassigned)", "Porcine Atria EC25 (Y75 value)": "100 µM"}

(Q) Report Porcine Atria EC25 (Y75 value) for C[C@H](NC(=O)[C@@H](C)n1c(=O)[nH]c2ccc(F)c(F)c2c1=O)c1ccc(F)cc1F please.
(A) 0.658 µM

(Q) Entry to check: C[C@@H](NC(=O)Cn1c(=O)[nH]c2ccc(C#N)cc2c1=O)c1ncc(C#N)cc1F (single isomer, unassigned)
(A) 4.31 µM

* * *

# MEASURED_TARGET: myosin ATPase, Porcine Ventricle myofibrils (Sus scrofa, UniProt P79293)
# Construct: Myofibrils from porcine cardiac muscle was isolated from the left ventricle of Yucatan minipigs; tissue Exemplar Genetics; host or cells: left ventricle of Yucatan minipigs, myofibrils
# Sequence (P79293 whole entry): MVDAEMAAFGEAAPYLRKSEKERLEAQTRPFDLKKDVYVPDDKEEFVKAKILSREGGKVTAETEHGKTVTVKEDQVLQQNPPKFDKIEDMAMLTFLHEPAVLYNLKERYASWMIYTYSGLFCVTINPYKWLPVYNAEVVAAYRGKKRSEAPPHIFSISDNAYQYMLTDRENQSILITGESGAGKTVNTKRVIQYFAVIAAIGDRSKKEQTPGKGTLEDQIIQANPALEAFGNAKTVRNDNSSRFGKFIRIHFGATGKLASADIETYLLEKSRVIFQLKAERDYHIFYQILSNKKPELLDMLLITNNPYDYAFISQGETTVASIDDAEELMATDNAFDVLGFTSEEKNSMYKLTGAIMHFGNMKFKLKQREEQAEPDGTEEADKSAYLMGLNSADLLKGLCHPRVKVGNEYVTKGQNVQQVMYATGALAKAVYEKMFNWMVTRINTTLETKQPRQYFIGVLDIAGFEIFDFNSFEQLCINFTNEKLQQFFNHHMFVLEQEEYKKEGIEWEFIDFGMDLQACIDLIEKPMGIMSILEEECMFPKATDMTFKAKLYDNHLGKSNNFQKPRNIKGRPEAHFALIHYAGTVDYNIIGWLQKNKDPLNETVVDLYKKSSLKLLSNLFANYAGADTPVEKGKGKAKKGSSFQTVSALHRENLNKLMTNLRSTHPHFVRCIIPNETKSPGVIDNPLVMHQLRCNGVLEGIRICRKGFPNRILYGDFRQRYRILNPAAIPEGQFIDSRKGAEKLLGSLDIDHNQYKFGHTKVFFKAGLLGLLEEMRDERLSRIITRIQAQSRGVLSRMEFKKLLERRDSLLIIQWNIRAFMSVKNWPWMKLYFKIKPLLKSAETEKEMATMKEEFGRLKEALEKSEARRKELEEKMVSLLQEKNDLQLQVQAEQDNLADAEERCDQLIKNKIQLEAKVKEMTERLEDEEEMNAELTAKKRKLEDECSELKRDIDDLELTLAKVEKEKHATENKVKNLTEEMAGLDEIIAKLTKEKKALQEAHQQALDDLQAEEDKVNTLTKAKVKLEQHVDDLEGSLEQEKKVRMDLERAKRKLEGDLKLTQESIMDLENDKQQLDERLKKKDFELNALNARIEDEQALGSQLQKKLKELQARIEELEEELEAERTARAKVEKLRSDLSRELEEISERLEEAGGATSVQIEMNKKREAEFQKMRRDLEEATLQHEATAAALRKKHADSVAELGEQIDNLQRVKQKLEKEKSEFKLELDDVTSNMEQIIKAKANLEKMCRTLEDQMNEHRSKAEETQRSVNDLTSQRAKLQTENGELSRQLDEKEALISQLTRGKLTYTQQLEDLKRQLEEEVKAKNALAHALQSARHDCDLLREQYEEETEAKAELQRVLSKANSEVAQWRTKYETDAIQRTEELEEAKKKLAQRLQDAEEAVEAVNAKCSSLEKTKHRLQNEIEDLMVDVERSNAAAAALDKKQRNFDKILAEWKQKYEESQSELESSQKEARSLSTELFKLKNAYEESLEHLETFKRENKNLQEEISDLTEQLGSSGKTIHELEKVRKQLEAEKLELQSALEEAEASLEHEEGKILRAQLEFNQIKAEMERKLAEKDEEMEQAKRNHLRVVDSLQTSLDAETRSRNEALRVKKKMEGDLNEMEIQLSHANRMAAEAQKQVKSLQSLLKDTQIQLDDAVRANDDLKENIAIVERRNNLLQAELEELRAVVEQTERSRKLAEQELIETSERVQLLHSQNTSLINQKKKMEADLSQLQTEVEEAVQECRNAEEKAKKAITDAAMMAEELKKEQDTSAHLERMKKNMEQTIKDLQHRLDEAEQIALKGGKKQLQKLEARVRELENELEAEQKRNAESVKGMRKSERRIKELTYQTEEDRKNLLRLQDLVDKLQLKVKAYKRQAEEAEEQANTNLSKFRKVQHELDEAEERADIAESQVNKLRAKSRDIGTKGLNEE
# PROTOCOL_SUMMARY: Myofibril ATPase assay, porcine ventricle myofibrils
# Type: biochemical, porcine (Yucatan minipigs)
# DETAILS: concentration required to reduce myosin ATP-ase activity by 25%; Porcine Ventricle Prep pCa 25 GEOM_MEAN
# reported Porcine Ventricle EC25 (Y75 value); entries follow
Response body: numeric value in µM, unit text excluded.

Check out these entries, answers already filled in.
{"MOLECULE": "CC(NC(=O)Cn1c(=O)[nH]c2ccccc2c1=O)c1cc(F)ccc1N(C)C (stereo not shown)", "UNIT_ANNOTATION": "µM", "Porcine Ventricle EC25 (Y75 value)": 100}
{"MOLECULE": "C[C@@H](NC(=O)Cn1c(=O)[nH]c2ccc(F)c(F)c2c1=O)c1ncc(C#N)cc1F (single isomer, unassigned)", "UNIT_ANNOTATION": "µM", "Porcine Ventricle EC25 (Y75 value)": 0.615}
{"MOLECULE": "COc1ccc(F)cc1C(C)NC(=O)Cn1c(=O)[nH]c2ccccc2c1=O (stereo not shown)", "UNIT_ANNOTATION": "µM", "Porcine Ventricle EC25 (Y75 value)": 100}

(Q) Report Porcine Ventricle EC25 (Y75 value) for Cc1c(F)ccc2[nH]c(=O)n(CC(=O)N[C@@H](C)c3ccc(C#N)cn3)c(=O)c12 (single isomer, unassigned) please.
(A) 1.90

* * *

# Test system: myosin ATPase, Porcine Atria myofibrils
# PROTOCOL_SUMMARY: Myofibril ATPase assay, porcine atria myofibrils
# Type: biochemical
# DETAILS: concentration required to reduce myosin ATP-ase activity by 25%; Porcine Atria Prep pCa 25 GEOM_MEAN
Porcine Atria EC25 (Y75 value) vs 20 µM: at or above is yes, below is no.

Here are 5 compounds together with their reported answers.
{"COMPOUND": "CC(C)C[C@H](C(=O)N[C@@H](C)c1ccc(F)cc1F)n1c(=O)[nH]c2ccccc2c1=O (single isomer, unassigned)", "ASSIGNED_CLASS": "yes"}
{"COMPOUND": "C[C@H](NC(=O)Cn1c(=O)[nH]c2ccccc2c1=O)c1cc(C(F)(F)F)cc(C(F)(F)F)c1 (single isomer, unassigned)", "ASSIGNED_CLASS": "yes"}
{"COMPOUND": "C[C@H](NC(=O)[C@@H](CC1CC1)n1c(=O)[nH]c2ccccc2c1=O)c1ccc(F)cc1F (single isomer, unassigned)", "ASSIGNED_CLASS": "yes"}
{"COMPOUND": "CC(NC(=O)Cn1c(=O)[nH]c2ccccc2c1=O)c1cnccn1 (stereo not shown)", "ASSIGNED_CLASS": "yes"}
{"COMPOUND": "C[C@H](NC(=O)Cn1c(=O)[nH]c2c(Cl)cccc2c1=O)c1ccc(F)cc1F", "ASSIGNED_CLASS": "yes"}

(Q) Can COc1cccc2[nH]c(=O)n(CC(=O)N[C@@H](C)c3ccc(F)cc3F)c(=O)c12 be said to have Porcine Atria EC25 (Y75 value) at or above 20 µM?
(A) yes

(Q) Entry to check: Cc1c(F)ccc2[nH]c(=O)n(CC(=O)N[C@H](C)c3ncc(C#N)cn3)c(=O)c12 (single isomer, unassigned)
(A) no

(Q) Entry to check: C[C@H](NC(=O)[C@@H](C)n1c(=O)[nH]c2ccccc2c1=O)c1ccc(F)cc1F (single isomer, unassigned)
(A) no
